molecular target: MDM2 (Homo sapiens); assay: Competitive fluorescence polarization assay for MDM2; format: binding; settings: competitive FP assay, MDM2; read-out: Ki (MDM2)
Where a SMILES comes first, the peptide text is derived from it. Bridges are numbered along the chain shown (N, C = ends). [ ]: non-standard residue; d: D form. R8 = C=CCCCCCC[C@@](C)(N)C(=O)O; Cba = N[C@@H](CC1CCC1)C(=O)O; S5 = C=CCCC[C@](C)(N)C(=O)O
Ki overview

>  <compound>
CC(=O)N[C@@H](CCCNC(=N)N)C(=O)N[C@H](C(=O)N[C@@H](Cc1ccccc1)C(=O)N[C@]1(C)CCCCCCC=CCCC[C@@](C)(C(=O)N[C@@H](CO)C(=O)N[C@@H](C)C(=O)N[C@@H](C)C(N)=O)NC(=O)[C@H](CC2CCC2)NC(=O)[C@H](CCC(N)=O)NC(=O)[C@H](C)NC(=O)[C@H](Cc2c[nH]c3ccccc23)NC(=O)[C@H](Cc2ccc(O)cc2)NC(=O)[C@H](CCC(=O)O)NC1=O)[C@@H](C)O [compound 360] (Ac-RTF[R8]EYWAQ[Cba][S5]SAA-NH2; staple 4-11)

>  <Ki>
< 10 nM

$$$$

Moving on to another compound below.
Send back MDM2 (Homo sapiens) Ki of CC(=O)N[C@@H](CC(C)C)C(=O)N[C@H](C(=O)N[C@@H](Cc1ccccc1)C(=O)N[C@]1(C)CCCCCCC=CCCC[C@@](C)(C(=O)N[C@@H](CO)C(=O)N[C@@H](C)C(=O)N[C@@H](Cc2ccccc2)C(N)=O)NC(=O)[C@H](CC2CCC2)NC(=O)[C@H](CCC(N)=O)NC(=O)[C@H](C)NC(=O)[C@H](Cc2c[nH]c3ccccc23)NC(=O)[C@H](Cc2ccc(O)cc2)NC(=O)[C@H](CCC(=O)O)NC1=O)[C@@H](C)O [compound 256] (Ac-LTF[R8]EYWAQ[Cba][S5]SAF-NH2; staple 4-11) only.
< 10 nM

###

molecular target: MDMX (Homo sapiens, UniProt O15151); test: Competitive fluorescence polarization assay for MDMX; assay type: binding; details: competitive FP assay, read-out: IC50 (MDMX)
Sequence (O15151 1-125): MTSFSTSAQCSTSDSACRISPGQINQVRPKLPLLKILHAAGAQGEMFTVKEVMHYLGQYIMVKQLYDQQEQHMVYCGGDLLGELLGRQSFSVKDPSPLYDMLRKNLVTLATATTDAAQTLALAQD
pIC50: −log10 of the molar value. Where a SMILES comes first, the peptide text is derived from it. Bridges are numbered along the chain shown (N, C = ends). [ ]: non-standard residue; d: D form. R8 = C=CCCCCCC[C@@](C)(N)C(=O)O; Cha = N[C@@H](CC1CCCCC1)C(=O)O; hLeu = CC(C)CC[C@H](N)C(=O)O; S5 = C=CCCC[C@](C)(N)C(=O)O; Nle = CCCC[C@H](N)C(=O)O
pIC50 overview

>  <compound>
CC(=O)N[C@@H](Cc1ccccc1)C(=O)N[C@]1(C)CCCCCCC=CCCC[C@@](C)(C(=O)N[C@@H](Cc2c[nH]cn2)C(=O)N[C@@H](CCCNC(=N)N)C(=O)N[C@@H](Cc2ccccc2)C(=O)N[C@@H](CC2CCCCC2)C(N)=O)NC(=O)[C@H](CC(C)C)NC(=O)[C@H](CCC(N)=O)NC(=O)[C@H](Cc2c[nH]cn2)NC(=O)[C@H](Cc2c[nH]c3ccccc23)NC(=O)[C@H](Cc2c[nH]cn2)NC(=O)[C@H](Cc2c[nH]cn2)NC1=O [compound 55] (Ac-F[R8]HHWHQL[S5]HRF[Cha]-NH2; staple 2-9)

>  <pIC50>
< 6.00

$$$$
>  <compound>
CCCC[C@H](NC(=O)[C@H](C)NC(=O)[C@H](C)NC(=O)[C@]1(C)CCCC=CCCCCCC[C@@](C)(NC(=O)[C@H](Cc2ccccc2)NC(=O)[C@@H](NC(=O)[C@H](CC(C)C)NC(C)=O)[C@@H](C)O)C(=O)N[C@@H](C)C(=O)N[C@@H](Cc2ccc(O)cc2)C(=O)N[C@@H](Cc2c[nH]c3ccccc23)C(=O)N[C@@H](C)C(=O)N[C@@H](CCC(N)=O)C(=O)N[C@@H](CC(C)C)C(=O)N1)C(=O)N[C@H](C)C(N)=O (single isomer, unassigned)

>  <pIC50>
6.00 to 7.00

$$$$
>  <compound>
CCCC[C@H](NC(=O)[C@H](C)NC(=O)[C@H](C)NC(=O)[C@]1(C)CCCC=CCCCCCC[C@@](C)(NC(=O)[C@H](Cc2ccccc2)NC(=O)[C@@H](NC(=O)[C@H](CC(C)C)NC(C)=O)[C@@H](C)O)C(=O)N[C@@H](CCC(=O)O)C(=O)N[C@@H](Cc2ccc(O)cc2)C(=O)N[C@@H](Cc2c[nH]c3ccccc23)C(=O)N[C@@H](C)C(=O)N[C@@H](CCC(N)=O)C(=O)N[C@@H](CCC(C)C)C(=O)N1)C(=O)N[C@@H](C)C(=O)N[C@@H](C)C(N)=O [compound 381] (Ac-LTF[R8]EYWAQ[hLeu][S5]AA[Nle]AA-NH2; staple 4-11)

>  <pIC50>
7.00 to 8.00

$$$$

Moving on to another compound below.
In one line, give reported pIC50 of the entry CC(=O)N[C@@H](CC(C)C)C(=O)N[C@H](C(=O)N[C@@H](Cc1ccccc1)C(=O)N[C@]1(C)CCCCCCC=CCCC[C@@](C)(C(=O)N[C@@H](CO)C(=O)N[C@@H](C)C(=O)N[C@@H](CCC(C)C)C(N)=O)NC(=O)[C@H](CC(C)C)NC(=O)[C@H](CCC(N)=O)NC(=O)[C@H](C)NC(=O)[C@H](Cc2c[nH]c3ccccc23)NC(=O)[C@H](Cc2ccc(O)cc2)NC(=O)[C@H](C)NC1=O)[C@@H](C)O [compound 6] (Ac-LTF[R8]AYWAQL[S5]SA[hLeu]-NH2; staple 4-11) .
6.00 to 7.00

###

pIC50 overview
target: MDMX (Homo sapiens, UniProt O15151); experiment: Competitive fluorescence polarization assay for MDMX; type: binding; conditions: competitive FP assay, read-out: IC50 (MDMX)
pIC50: −log10 of the molar value. Where a SMILES comes first, the peptide text is derived from it. Bridges are numbered along the chain shown (N, C = ends). [ ]: non-standard residue; d: D form. R8 = C=CCCCCCC[C@@](C)(N)C(=O)O; Cha = N[C@@H](CC1CCCCC1)C(=O)O; S5 = C=CCCC[C@](C)(N)C(=O)O

In one line, give reported pIC50 of the entry CC(=O)N[C@@H](Cc1ccccc1)C(=O)N[C@]1(C)CCCCCCC=CCCC[C@@](C)(C(=O)N[C@@H](CCCNC(=N)N)C(=O)N[C@@H](CCCNC(=N)N)C(=O)N[C@@H](CC(=O)O)C(=O)N[C@@H](CC2CCCCC2)C(N)=O)NC(=O)[C@H](CC(C)C)NC(=O)[C@H](CCC(N)=O)NC(=O)[C@H](Cc2c[nH]cn2)NC(=O)[C@H](Cc2c[nH]c3ccccc23)NC(=O)[C@H](Cc2c[nH]cn2)NC(=O)[C@H](Cc2c[nH]cn2)NC1=O [compound 30] (Ac-F[R8]HHWHQL[S5]RRD[Cha]-NH2; staple 2-9) .
6.00 to 7.00

In one line, give reported pIC50 of the entry CC(=O)N[C@@H](CCC(=O)O)C(=O)N[C@H](C(=O)N[C@@H](Cc1ccccc1)C(=O)N[C@]1(C)CCCCCCC=CCCC[C@@](C)(C(=O)N[C@@H](CO)C(=O)N[C@@H](CC(N)=O)C(=O)N[C@H](C)C(N)=O)NC(=O)[C@H](CC(C)C)NC(=O)[C@H](CCC(N)=O)NC(=O)[C@H](C)NC(=O)[C@H](Cc2c[nH]c3ccccc23)NC(=O)[C@H](Cc2ccc(O)cc2)NC(=O)[C@H](C(C)C)NC1=O)[C@@H](C)O [compound 136] (Ac-ETF[R8]VYWAQL[S5]SN[dA]-NH2; staple 4-11) .
6.00 to 7.00

###

target: MDM2 (Homo sapiens, UniProt Q00987); assay: Competitive fluorescence polarization assay for MDM2; assay type: binding; conditions: competitive FP assay, MDM2; read-out: IC50 (MDM2)
Sequence (Q00987 1-125): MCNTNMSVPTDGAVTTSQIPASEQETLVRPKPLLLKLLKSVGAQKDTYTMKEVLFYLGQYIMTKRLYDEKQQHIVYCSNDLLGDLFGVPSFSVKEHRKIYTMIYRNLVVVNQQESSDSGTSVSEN
Where a SMILES comes first, the peptide text is derived from it. Bridges are numbered along the chain shown (N, C = ends). [ ]: non-standard residue; d: D form. R8 = C=CCCCCCC[C@@](C)(N)C(=O)O; Cba = N[C@@H](CC1CCC1)C(=O)O; S5 = C=CCCC[C@](C)(N)C(=O)O; Nle = CCCC[C@H](N)C(=O)O
experimental readout: IC50

In one line, give reported IC50 of the entry CCCC[C@H](NC(=O)[C@H](Cc1c[nH]c2ccccc12)NC(=O)[C@H](C)NC(=O)[C@]1(C)CCCC=CCCCCCC[C@@](C)(NC(=O)[C@H](Cc2ccccc2)NC(=O)[C@@H](NC(=O)[C@H](CC(C)C)NC(C)=O)[C@@H](C)O)C(=O)N[C@@H](CCC(=O)O)C(=O)N[C@@H](Cc2ccc(O)cc2)C(=O)N[C@@H](Cc2c[nH]c3ccccc23)C(=O)N[C@@H](C)C(=O)N[C@@H](CCC(N)=O)C(=O)N[C@@H](CC2CCC2)C(=O)N1)C(=O)N[C@@H](C)C(N)=O [compound 241] (Ac-LTF[R8]EYWAQ[Cba][S5]AW[Nle]A-NH2; staple 4-11) .
10 to 100 nM
